# System: SK-MEL-2 melanoma
# Assay text: NCI tumour cell line growth inhibition, 48 h
TGI values by entry

Record excerpt, results attached:
I am curious: what TGI value has been reported for O=c1[nH]c2nccn2c2c1SCCN2 ?
> 100 µM

I am curious: what TGI value has been reported for CCOC(=O)C12C(C(=O)OC)=C(C)N(NC(=O)Nc3ccccc3)C1(N)N(NC(=O)Nc1ccccc1)C(C)=C2C(=O)OC (centres undefined) ?
37.5 µM

I am curious: what TGI value has been reported for C=C1C(=O)O[C@H]2[C@H]1CC/C(COC(=O)OC/C1=C/CC[C@@]3(C)O[C@H]3[C@H]3OC(=O)[C@@H](CN(C)C)[C@@H]3CC1)=C\CC[C@@]1(C)O[C@@H]21 ?
5.88 µM

***
I am curious: what TGI value has been reported for COC(=O)C1=C(O)CCCC(C2CCCCC(=O)C2C(=O)OC)=C1 (centres undefined) ?
> 100 µM

I am curious: what TGI value has been reported for C[C@]12CC[C@H]3[C@@H](CC4SC(N)=NC45C/C(=N/NC(N)=O)CC[C@]35C)[C@@H]1CCC2=O (some centres undefined) ?
4.58 µM

I am curious: what TGI value has been reported for CN(O)C(=O)CCCC(=O)NCC(C)(C)CNC(=O)CCCC(=O)N(C)O ?
> 100 µM

I am curious: what TGI value has been reported for O=[N+]([O-])c1cc2ccc(N(CCO)CCO)nc2nc1N(CCO)CCO ?
> 100 µM

I am curious: what TGI value has been reported for Cc1nc(N)nc(N)c1CCCc1ccccc1 ?
> 100 µM

---

# Tested on: NCI-H226 lung
# Assay text: NCI tumour cell line growth inhibition, 48 h
Property measured: TGI

Record excerpt, results attached:
I am curious: what TGI value has been reported for OC12c3ccccc3C1CCCCCCCCCC21OCCO1 (stereo unspecified) ?
> 100 µM

I am curious: what TGI value has been reported for COC(=O)c1c2c(cc3c1CC1(Cc4cc5c(c(C(C)=O)c4C1)CCCC5)C3)CCCC2 (stereo unspecified) ?
> 100 µM

I am curious: what TGI value has been reported for O=C(N/N=C\c1cccc2ccccc12)Nc1cccc2ccccc12 ?
> 100 µM

***
I am curious: what TGI value has been reported for Nc1ccc2ccc(N3CCNCC3)nc2n1 ?
85.2 µM

I am curious: what TGI value has been reported for C#C[C@@]1(O)CCCC2=CC3(CC[C@]21C)SCCS3 ?
> 100 µM

I am curious: what TGI value has been reported for CCN(CC)CC1CN=C(N)O1 (stereo unspecified) ?
> 100 µM

---

# System: HCC-2998 colon
# Assay text: NCI tumour cell line growth inhibition, 48 h
Property measured: GI50

// lookup GI50 | system=HCC-2998 colon | key= CC(C)=CC(=O)N[C@H]1CC[C@]2(C)C3CC[C@]4(C)C(C(C)N(C)C)=CCC4C3CCC2[C@H]1O (some centres undefined)
5.22 µM

// lookup GI50 | system=HCC-2998 colon | key= O=CN1N=C(c2cccc(Nc3ccnc4cc(Cl)ccc34)c2)CC1c1ccccc1 (centres undefined)
1.03 µM

// lookup GI50 | system=HCC-2998 colon | key= O=C1C(=O)c2ccccc2C(O)=C1CCCc1ccc(C2CCCCC2)cc1
11.6 µM
